Value source: patent US20230348573A1

So I've got a bunch of binders here, and I need their binding amount (%) of ACE2 protein values.
# Test System: T1, full-length spike protein of SARS-CoV-2 (Wuhan strain) (SARS-CoV-2 (Wuhan strain), UniProt P0DTC2 14-1273)
# T1 construct: whole, on cells; Expressed in 293T cells
# Procedure Text: ACE2 competition, spike on 293T cells, antibody 4 µg/mL
Field format: number, assumed %, no unit text.

Req: Answer with the recorded binding amount (%) of ACE2 protein for the binder listed here: Ab803 (antibody, V domains shown) VH: EVQLVESGGGLVQPGRSLRVSCAASGFTFDDYAMHWVRQTPRKGLEWVAGISRNSAAIAYADSVKGRFTISRDNAKNSVFLQMNGLRADDTALYYCVKSPRYGWGSPDYSFDFWGRGTLVTVSS VL: DIQLTQSPSSLSASVGDRVTITCRASQNIGTYLNWYQQEPGKAPKLLIYAASSLQSGVPSRFSGSGSGTDFTLTISSLQPEDFATYCCQQSFTTPLTFGQGTKVEIK
Resp: 0.9

Req: Answer with the recorded binding amount (%) of ACE2 protein for the binder listed here: Ab114 (antibody, V domains shown) VH: EVQLVESGGGLIQPGGSLRLSCAASGFTVSSNYMNWVRQAPGKGLEWVSVIYSGGSTFYADSVKGRFTISRDNSKNTLYLQMNSLRVEDTAVYYCARDLDTQGGMDVWGQGTTVTVSS VL: EIVLTQSPGSLSLSPGERATLSCRASQGVSSSYLAWYQHKPGQAPRLLIFGASTRATGIPDRFSGSGSGTDFTLTISRLEPEDFAVYYCQLYGSSPGTFGQGTKLEIK
Resp: 10.9

Req: Answer with the recorded binding amount (%) of ACE2 protein for the binder listed here: Ab863 (antibody, V domains shown) VH: EVQLVQSGAEVKKPGASVKVSCQASGYTFITYYMHWVRQAPGQGLEWMGIINPDGGSISYAQKFQGRVTMTRDTSTSTVYMELSSLRSEDTAVYYCARGLSPTFSSSWFDNWGLGTLVTVSS VL: DVVMTQSPATLSVSPGERATLSCRASQSVSSNLAWYQQKPGQAPRLLIYGASTRDTGIPARFSGSGSGTEFTLTISSLQSEDFAVYFCQQYKNWLLTFGGGTKVEIK
Resp: 1.7
